- ASSAYED_SYSTEM: HiBit-WIZ fusion protein (Homo sapiens, UniProt O95785+Q96SW2)
- Sequence (O95785 whole entry, the tested form may be a part): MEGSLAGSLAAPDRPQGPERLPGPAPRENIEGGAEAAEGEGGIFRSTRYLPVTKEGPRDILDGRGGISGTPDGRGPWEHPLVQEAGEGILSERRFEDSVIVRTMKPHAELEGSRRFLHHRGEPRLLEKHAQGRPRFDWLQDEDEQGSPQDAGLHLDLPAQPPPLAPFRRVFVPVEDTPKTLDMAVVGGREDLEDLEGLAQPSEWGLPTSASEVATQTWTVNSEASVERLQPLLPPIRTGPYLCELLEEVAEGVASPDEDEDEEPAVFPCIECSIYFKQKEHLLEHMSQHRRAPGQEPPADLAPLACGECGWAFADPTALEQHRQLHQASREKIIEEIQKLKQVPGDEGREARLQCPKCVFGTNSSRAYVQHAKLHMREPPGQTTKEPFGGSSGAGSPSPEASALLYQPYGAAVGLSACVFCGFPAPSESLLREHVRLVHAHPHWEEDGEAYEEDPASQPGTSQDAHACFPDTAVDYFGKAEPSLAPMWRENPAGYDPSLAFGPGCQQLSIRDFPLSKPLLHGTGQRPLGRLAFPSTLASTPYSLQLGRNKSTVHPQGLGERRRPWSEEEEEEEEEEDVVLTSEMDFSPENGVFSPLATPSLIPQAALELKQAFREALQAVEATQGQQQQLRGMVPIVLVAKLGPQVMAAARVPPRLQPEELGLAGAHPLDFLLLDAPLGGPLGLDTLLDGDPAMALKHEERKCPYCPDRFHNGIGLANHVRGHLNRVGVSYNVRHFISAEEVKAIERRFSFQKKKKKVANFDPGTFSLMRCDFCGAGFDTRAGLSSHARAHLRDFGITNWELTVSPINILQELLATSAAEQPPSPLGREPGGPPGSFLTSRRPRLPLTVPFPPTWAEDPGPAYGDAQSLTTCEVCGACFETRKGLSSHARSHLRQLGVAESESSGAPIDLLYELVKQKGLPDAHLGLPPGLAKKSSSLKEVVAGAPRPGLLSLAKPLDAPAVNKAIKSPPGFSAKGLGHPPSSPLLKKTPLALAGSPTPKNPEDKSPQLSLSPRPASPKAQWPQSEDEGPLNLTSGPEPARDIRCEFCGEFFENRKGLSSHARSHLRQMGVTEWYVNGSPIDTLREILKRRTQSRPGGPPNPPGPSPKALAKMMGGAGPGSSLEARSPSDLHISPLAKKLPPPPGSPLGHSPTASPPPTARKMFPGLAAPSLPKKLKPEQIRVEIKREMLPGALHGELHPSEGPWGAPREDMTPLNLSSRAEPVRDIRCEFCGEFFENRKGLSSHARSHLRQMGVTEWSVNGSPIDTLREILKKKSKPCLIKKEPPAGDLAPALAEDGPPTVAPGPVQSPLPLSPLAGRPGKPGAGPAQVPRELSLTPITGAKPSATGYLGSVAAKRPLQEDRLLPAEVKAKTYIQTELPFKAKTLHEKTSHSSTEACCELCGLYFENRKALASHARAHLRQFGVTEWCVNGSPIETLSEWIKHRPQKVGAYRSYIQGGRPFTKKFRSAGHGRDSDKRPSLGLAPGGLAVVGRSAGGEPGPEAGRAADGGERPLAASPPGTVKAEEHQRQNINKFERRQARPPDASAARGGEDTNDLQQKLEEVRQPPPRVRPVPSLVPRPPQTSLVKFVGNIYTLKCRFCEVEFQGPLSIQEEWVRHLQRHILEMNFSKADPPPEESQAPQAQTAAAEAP
- Sequence (Q96SW2 whole entry, the tested form may be a part): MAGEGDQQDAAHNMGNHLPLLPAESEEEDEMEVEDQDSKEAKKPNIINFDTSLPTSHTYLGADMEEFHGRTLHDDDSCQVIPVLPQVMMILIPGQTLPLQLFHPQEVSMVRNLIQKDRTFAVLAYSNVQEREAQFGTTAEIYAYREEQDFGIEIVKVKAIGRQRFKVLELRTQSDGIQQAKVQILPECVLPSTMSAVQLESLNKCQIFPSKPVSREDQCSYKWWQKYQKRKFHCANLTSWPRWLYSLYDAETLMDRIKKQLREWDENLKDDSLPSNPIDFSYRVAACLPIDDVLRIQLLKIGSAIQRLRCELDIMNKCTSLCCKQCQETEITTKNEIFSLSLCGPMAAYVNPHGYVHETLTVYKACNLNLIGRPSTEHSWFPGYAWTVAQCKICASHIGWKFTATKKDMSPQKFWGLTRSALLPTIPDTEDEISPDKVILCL
- Sequence (Q16531 whole entry partner, the tested form may be a part): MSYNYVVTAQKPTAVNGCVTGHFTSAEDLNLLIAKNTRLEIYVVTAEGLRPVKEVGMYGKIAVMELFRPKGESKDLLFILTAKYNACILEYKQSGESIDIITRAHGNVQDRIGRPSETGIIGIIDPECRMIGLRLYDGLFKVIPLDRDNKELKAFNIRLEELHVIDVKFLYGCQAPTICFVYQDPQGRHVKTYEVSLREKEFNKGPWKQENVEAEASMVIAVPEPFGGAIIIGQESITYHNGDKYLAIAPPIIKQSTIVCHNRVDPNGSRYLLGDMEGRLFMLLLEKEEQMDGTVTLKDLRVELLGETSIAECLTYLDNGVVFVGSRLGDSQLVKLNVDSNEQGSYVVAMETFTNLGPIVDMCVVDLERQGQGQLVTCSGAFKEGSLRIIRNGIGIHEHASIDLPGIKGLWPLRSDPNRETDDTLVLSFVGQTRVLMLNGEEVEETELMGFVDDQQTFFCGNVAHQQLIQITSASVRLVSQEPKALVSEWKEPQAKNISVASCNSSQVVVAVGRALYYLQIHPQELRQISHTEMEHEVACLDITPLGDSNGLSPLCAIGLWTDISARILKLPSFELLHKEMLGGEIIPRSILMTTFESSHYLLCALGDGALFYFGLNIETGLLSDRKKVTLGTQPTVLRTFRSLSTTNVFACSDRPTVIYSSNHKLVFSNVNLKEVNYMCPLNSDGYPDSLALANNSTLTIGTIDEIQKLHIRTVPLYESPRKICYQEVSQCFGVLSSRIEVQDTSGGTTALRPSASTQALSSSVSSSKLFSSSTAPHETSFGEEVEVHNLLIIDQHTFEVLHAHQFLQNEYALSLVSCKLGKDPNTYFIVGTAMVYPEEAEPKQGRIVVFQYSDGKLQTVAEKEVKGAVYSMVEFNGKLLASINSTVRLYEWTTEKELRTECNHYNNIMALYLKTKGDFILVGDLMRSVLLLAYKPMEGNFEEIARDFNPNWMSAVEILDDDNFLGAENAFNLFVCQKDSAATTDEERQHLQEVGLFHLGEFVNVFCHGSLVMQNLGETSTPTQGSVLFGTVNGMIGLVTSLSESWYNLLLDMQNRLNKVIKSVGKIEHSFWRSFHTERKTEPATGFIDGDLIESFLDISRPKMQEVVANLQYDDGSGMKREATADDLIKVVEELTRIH
- TEST_NAME: Quantification of WIZ protein levels in HiBit tag fusion protein assay (WIZ HiBit assay in 293T cells)
- Type: cell-based
- CONDITION_SET: HEK-293T, DMSO-normalized, curve-fitted percentage of WIZ-HiBit remaining at 25 uM; 293T cells; read-out: WIZ Amax
MEASURE: remaining activity at up to 25 µM (%)
Numbers only, in %.

Some solved entries appear below for comparison.
CC(C)(C)OC(=O)NC1(CN2CCCC[C@@H]2COc2ccc3c(c2)CN(C2CCC(=O)NC2=O)C3=O)CCCC1 (some centres unmarked) [Compound I-50cf]; 61.9
CC(C)(C)c1ccc(CN2CCCC[C@@H]2COc2ccc3c(c2)CN(C2CCC(=O)NC2=O)C3=O)cc1 (some centres unmarked) [Compound I-158]; 5.93
CCn1cc(CN2CCCC[C@@H]2COc2ccc3c(c2)CN(C2CCC(=O)NC2=O)C3=O)cn1 (some centres unmarked) [Compound I-50eo]; 6
Cc1cc(CN2CCCC[C@H]2COc2ccc3c(c2)CN(C2CCC(=O)NC2=O)C3=O)no1 (some centres unmarked) [Compound I-50by]; 74.3
O=C1CCC(N2Cc3cc(OC[C@@H]4CCCCN4C(=O)c4ccc(-c5ccc(F)cc5)cn4)ccc3C2=O)C(=O)N1 (some centres unmarked) [Compound I-72fj]; 36.3

Provide each entry's remaining activity at up to 25 µM from the list below.
1. COc1cc(CN2CCCC[C@@H]2COc2ccc3c(c2)CN(C2CCC(=O)NC2=O)C3=O)ccc1C (some centres unmarked) [Compound I-50eu]
2. O=C1CCC(N2Cc3cc(OC[C@H]4CCCCN4Cc4ccccc4N4CCCCC4)ccc3C2=O)C(=O)N1 (some centres unmarked) [Compound I-119]
3. N#Cc1ccn2cc(CN3CCCC[C@@H]3COc3ccc4c(c3)CN(C3CCC(=O)NC3=O)C4=O)nc2c1 (some centres unmarked) [Compound I-50dt]
4. CCN1CCN(c2ccc(CN3CCCC[C@@H]3COc3ccc4c(c3)CN(C3CCC(=O)NC3=O)C4=O)cn2)CC1 (some centres unmarked) [Compound I-191]
5. O=C1CCC(N2Cc3cc(OC[C@H]4CCCCN4Cc4nccn4Cc4ccccc4)ccc3C2=O)C(=O)N1 (some centres unmarked) [Compound I-50ax]
6. Cc1nccn1-c1ccc(CN2CCCC[C@@H]2COc2ccc3c(c2)CN(C2CCC(=O)NC2=O)C3=O)cc1 (some centres unmarked) [Compound I-50ew]

1. 0.7
2. 2.56
3. 33
4. 32.9
5. 7.5
6. 0.7

I have 2 molecules here; please give me remaining activity at up to 25 µM for each one.
1. O=C1CCC(N2Cc3cc(OC[C@H]4CCCCN4Cc4ccc(C5CCN(CCF)CC5)cc4)ccc3C2=O)C(=O)N1 (some centres unmarked) [Compound I-198]
2. Cc1nnsc1CN1CCCC[C@@H]1COc1ccc2c(c1)CN(C1CCC(=O)NC1=O)C2=O (some centres unmarked) [Compound I-50ep]

[32, 87.6]

What value of remaining activity at up to 25 µM has been recorded for this entry: O=C1CCC(N2Cc3cc(OC[C@H]4CCCCN4Cc4ccc(F)cc4Cl)ccc3C2=O)C(=O)N1 (some centres unmarked) [Compound I-114] 5.54

Where do the numbers come from? From patent US11566022B2.
